Molecular target: T1, influenza A minimal peptide VPNGTLVKTITNDQI (spotted for dot blot) (Influenza A virus (H3 hemagglutinin …))
T1 chain: VPNGTLVKTITNDQI

binder	binding result
flu_c645 (antibody, V domains shown) VH: EVQLVQSGAEVKKPGESLKISCQASGYIFVNYWVGWLRQAPGKGLEWIGIIFPGDSDTTYSPSFQGQVTISAAKSINTVYLQWNSLKASDTAMYYCARAPVPGMSGWFDPWGQGTLVTVSS VL: DIVMTQSPDSLAVSLGGGATIKCKSSHSLLYSSNSKNYLSWYQQKPGQPPKLLFYWASTRESGVPDRFSGSGSGTDFTLTIDSLQAEDLAVYFCQQYFYTPYTFGQGTKLEIN	binds
